# Tested on: NCI-H2347
# measurement.protocol: relative viability (nuclei count vs DMSO), 5 days (fraction); higher = more cells survive
# condition.summary: first compound 0.1581 µM
quantity.name: relative viability
Numbers only.

Worked cases, relative viability given:
>  <compound>
Nc1ccn([C@@H]2O[C@H](CO)[C@@H](O)[C@@H]2O)c(=O)n1 [Cytarabine] + CC(=O)c1c(C)c2cnc(Nc3ccc(N4CCNCC4)cn3)nc2n(C2CCCC2)c1=O [Palbociclib] (partner 0.5 µM)

>  <relative viability>
0.386

$$$$
>  <compound>
Nc1ccn([C@@H]2O[C@H](CO)[C@@H](O)[C@@H]2O)c(=O)n1 [Cytarabine] + CS(=O)(=O)N1CCN(Cc2cc3nc(-c4cccc5[nH]ncc45)nc(N4CCOCC4)c3s2)CC1 [Pictilisib] (partner 1 µM)

>  <relative viability>
0.482

$$$$

Then there is this compound:
Ask | For the compound shown here, COc1cc2nccc(Oc3ccc(NC(=O)Nc4cc(C)on4)c(Cl)c3)c2cc1OC [Tivozanib] + Nc1nc2[nH]cc(CCc3ccc(C(=O)N[C@@H](CCC(=O)O)C(=O)O)cc3)c2c(=O)[nH]1 [Pemetrexed] (partner 0.2 µM) , give the reported relative viability.
Reply | 0.427
